system tested: MAPK14;MAPK11;MAPK12 (human) (UniProt Q16539)
assay explanation: Inhibition of p38 Kinase Activity
Recorded IC50, one value per entry.

Solved cases (8 shown):
- compound: "CCOC(=O)Nc1ccc(C)c(Nc2nc(NCCN3CCCC3)nc(N(C)CC(C)(C)C)n2)c1"
  reading: "< 1000 nM"
- compound: "CC(CNc1nc(Nc2ccc3ncsc3c2)nc(N2CCN(C(=O)c3ccc(-c4ccccc4)cc3)CC2)n1)c1ccccc1 (centres undefined)"
  reading: "< 10000 nM"
- compound: "CNc1nc(Nc2cc(C(N)=O)ccc2C)nc(N[C@H]2CCNC2)n1"
  reading: "< 1000 nM"
- compound: "Cc1ccc(C(N)=O)cc1Nc1nc(N[C@H]2CCCNC2)nc(N(C)CC(C)C)n1"
  reading: "< 1000 nM"
- compound: "Cc1ccc(C(N)=O)cc1Nc1nc(N[C@@H]2CCCC[C@@H]2N)nc(N(C)CC(C)(C)C)n1"
  reading: "< 1000 nM"
- compound: "Cc1ccc(C(N)=O)cc1Nc1nc(N[C@H]2CCN(C3CCCCC3)C2)nc(N(C)CC(C)C)n1"
  reading: "< 1000 nM"
- compound: "Cc1ccc(C(N)=O)cc1Nc1nc(N[C@H]2CCCC[C@H]2N)nc(N(C)CC(C)C)n1"
  reading: "< 1000 nM"
- compound: "CC(CNc1nc(Nc2ccc3ncsc3c2)nc(N(C)CCCN(C)C(=O)C2CCOC2)n1)c1ccccc1 (centres undefined)"
  reading: "< 10000 nM"

Report IC50, nothing else, for this compound: `CNC(=O)c1ccc(C)c(Nc2nc(NC[C@H]3CCCN3)nc(N(C)CC(C)(C)C)n2)c1`
< 1000 nM

Identify the reported IC50 for the following entry. c1nc2ccc(Nc3nc(NCC4CCCO4)nc(NC4CC4)n3)cc2s1 (centres undefined)
< 10000 nM

Respond only with IC50 recorded for CC1(C)[C@H]2CCC(COc3nc(Cl)nc(Nc4ccc5ncsc5c4)n3)[C@@H]1C2 (some centres undefined)
< 10000 nM

Give the measured IC50 for `Cc1ccc(C(N)=O)cc1Nc1nc(N[C@H]2CCN(C(C)C)C2)nc(N(C)CC(C)C)n1`
< 1000 nM

Return the recorded IC50 value; entry: `Nc1nc(NCCc2ccccc2)nc(Nc2ccc(S(=O)(=O)Nc3ncccn3)cc2)n1`
< 10000 nM

* * *

system tested: MAPK14;MAPK11;MAPK12 (human) (UniProt Q16539)
assay explanation: Inhibition of p38 Kinase Activity
Reported IC50 values are given for each entry in this list.

Would you please look over these solved cases?
- molecule: "CCCN(C)c1nc(Nc2cc(C(N)=O)ccc2C)nc(N[C@H]2CCNC2)n1"
  IC50: "< 1000 nM"
- molecule: "CNC(=O)C1CCN(c2nc(NC[C@@H]3CC[C@@H]4C[C@H]3C4(C)C)nc(Nc3ccc4ncsc4c3)n2)CC1"
  IC50: "< 10000 nM"
- molecule: "CC(CNc1nc(Nc2ccc3ncsc3c2)nc(N(C)CCCN(C)C(=N)N)n1)c1ccccc1 (centres undefined)"
  IC50: "< 10000 nM"

# lookup: MAPK14;MAPK11;MAPK12 (human) (UniProt Q16539) IC50, key = CC(CNc1nc(Nc2ccc3ncsc3c2)nc(N2CC3CC2CN3C(=O)c2cccnc2)n1)c1ccccc1 (centres undefined)
< 10000 nM

Answer briefly: IC50 recorded on MAPK14;MAPK11;MAPK12 (human) (UniProt Q16539) for `Cc1ccc(S(N)(=O)=O)cc1Nc1nc(N[C@H]2CCNC2)nc(N(C)CC(C)(C)C)n1`
< 1000 nM

Fetch value of IC50 on MAPK14;MAPK11;MAPK12 (human) (UniProt Q16539) for Cc1ccc(C(N)=O)cc1Nc1nc(N[C@H]2CCN(C(C)c3ccccc3)C2)nc(N(C)CC(C)C)n1 (some centres undefined) .
< 1000 nM

System MAPK14;MAPK11;MAPK12 (human) (UniProt Q16539). Read-out IC50. Item `Cc1ccc(CO)cc1Nc1nc(N[C@H]2CCNC2)nc(N(C)CC(C)(C)C)n1` . Report value.
< 1000 nM

Provide MAPK14;MAPK11;MAPK12 (human) (UniProt Q16539) IC50 reading for CC1(C)C2CCC(CNc3nc(Nc4ccc5ncsc5c4)nc(N4CCN(C(=O)CCC(=O)O)CC4)n3)C1C2 (centres undefined) .
< 10000 nM

Fill in: IC50 on MAPK14;MAPK11;MAPK12 (human) (UniProt Q16539), entry `Cc1ccc(C(=O)NCc2ccccc2)cc1Nc1nc(N[C@H]2CCNC2)nc(N(C)CC(C)(C)C)n1`
< 1000 nM

* * *

The reader will find reported pIC50 values listed item by item below.
system tested: MAPK14;MAPK11;MAPK12 (human) (UniProt Q16539)
assay explanation: Inhibition of p38 Kinase Activity
pIC50: −log10 of the molar value.

- compound: "Cc1ccc(C(N)=O)cc1Nc1nc(NC2CCN(Cc3ccccc3)C2)nc(N(C)CC(C)(C)C)n1 (centres undefined)"
  reading: "> 6.00"
- compound: "c1ccc(C2CCCN(c3nc(Nc4ccc5ncsc5c4)nc(N4CCNCC4)n3)C2)cc1 (centres undefined)"
  reading: "> 5.00"
- compound: "Cc1ccc(C(=O)NCC(F)(F)F)cc1Nc1nc(N[C@H]2CCNC2)nc(N(C)CC(C)C)n1"
  reading: "> 6.00"
- compound: "Cc1ccc(C(N)=O)cc1Nc1nc(N[C@@H]2CCN(C(C)C)C2)nc(N(C)CC(C)(C)C)n1"
  reading: "> 6.00"

Supply measured pIC50 of `Cc1ccc(C(N)=O)cc1Nc1nc(NCCc2ccc3c(c2)OCO3)nc(N[C@H]2CCNC2)n1` in your reply.
> 6.00

Note pIC50 for the compound shown: `CNCCN(C)c1nc(NC[C@@H](C)c2ccccc2)nc(Nc2ccc3ncsc3c2)n1`
> 5.00

Answer with the recorded pIC50 of `CC1(C)[C@H]2CC[C@H](CNc3nc(Nc4ccc5ncsc5c4)nc(N4CCNCC4)n3)[C@@H]1C2` only.
> 5.00

Read the entry `Cc1ccc(C(N)=O)cc1Nc1nc(NC2CCCC2)nc(N[C@@H]2CCNC2)n1` and write its reported pIC50.
> 6.00

Give recorded pIC50. CNCCN(C)c1nc(NCC2CCC3CC2C3(C)C)nc(Nc2ccc3ncsc3c2)n1 (centres undefined)
> 5.00

* * *

Form field: pIC50 (one value per entry).
system tested: MAPK14;MAPK11;MAPK12 (human) (UniProt Q16539)
assay explanation: Inhibition of p38 Kinase Activity
pIC50: −log10 of the molar value.

Take a look at these entries with their results.
- compound: "CCCNC(=O)c1ccc(C)c(Nc2nc(O[C@H]3CCNC3)nc(N(C)CC(C)(C)C)n2)c1"
  reading: "> 6.00"
- compound: "CC(C)NC(=O)N(C)CCCN(C)c1nc(NCC(C)c2ccccc2)nc(Nc2ccc3ncsc3c2)n1 (stereo not given)"
  reading: "> 5.00"
- compound: "COc1ccc(NC(=O)c2ccc(C)c(Nc3nc(N[C@H]4CCNC4)nc(N(C)CC(C)(C)C)n3)c2)cc1"
  reading: "> 6.00"
- compound: "Cc1ccc(C(N)=O)cc1Nc1nc(N[C@H]2CCN(Cc3cccnc3)C2)nc(N(C)CC(C)C)n1"
  reading: "> 6.00"

Could you please provide reported pIC50 for `CNc1nc(Nc2ccc3ncsc3c2)nc(N[C@H](C)C2CCCCC2)n1` ? Thanks!
> 5.00

* * *

system tested: MAPK14;MAPK11;MAPK12 (human)
assay explanation: Inhibition of p38 Kinase Activity
pIC50: −log10 of the molar value.
Recorded measurements of pIC50, one per entry

- compound: "Cc1ccc(C(N)=O)cc1Nc1nc(N[C@H]2CCN(S(C)(=O)=O)C2)nc(N(C)CC(C)C)n1"
  experimental endpoint: "pIC50"
  reading: "> 6.00"
- compound: "Cc1ccc(C(=O)NCCC(C)C)cc1Nc1nc(N[C@H]2CCNC2)nc(N(C)CC(C)(C)C)n1"
  experimental endpoint: "pIC50"
  reading: "> 6.00"

Given the compound COc1ccc(C(=O)N2CCN(c3nc(NCC(C)c4ccccc4)nc(Nc4ccc5ncsc5c4)n3)CC2)cc1 (stereo unspecified) , write its reported pIC50.
> 5.00

* * *

system tested: MAPK14;MAPK11;MAPK12 (human)
assay explanation: Inhibition of p38 Kinase Activity
experimental endpoint: IC50

- molecule: "CONC(=O)c1ccc(C)c(Nc2nc(NCCCN3CCOCC3)nc(N(C)CC(C)(C)C)n2)c1"
  experimental endpoint: "IC50"
  reading: "< 1000 nM"
- molecule: "CONC(=O)c1ccc(F)c(Sc2nc(N[C@@H]3CCNC3)nc(N(C)CC(C)(C)C)n2)c1"
  experimental endpoint: "IC50"
  reading: "< 30000 nM"
- molecule: "CCONC(=O)c1ccc(C)c(Nc2nc(N(C)CC(C)(C)C)cc(N3CCCN(C)CC3)n2)c1"
  experimental endpoint: "IC50"
  reading: "< 1000 nM"
- molecule: "Cc1ccc(COC(=O)C(F)(F)F)cc1Nc1nc(N[C@H]2CCNC2)nc(N(C)CC(C)(C)C)n1"
  experimental endpoint: "IC50"
  reading: "< 1000 nM"
- molecule: "Cc1ccc(C(N)=O)cc1Nc1nc(NCCc2ccc(O)cc2)nc(N[C@H]2CCNC2)n1"
  experimental endpoint: "IC50"
  reading: "< 1000 nM"

# return recorded IC50 for entry `Cc1ccc(C(N)=O)cc1Nc1nc(CC2CCCC2)nc(Nc2ccncc2)n1`
< 1000 nM

Answer with reported IC50 of Cc1ccc(C(N)=O)cc1Nc1nc(N[C@H]2CCN(C(C)c3ccccn3)C2)nc(N(C)CC(C)C)n1 (some centres undefined)
< 1000 nM

Please indicate IC50 recorded for `CONC(=O)c1ccc(C)c(Sc2nc(N[C@@H]3CCNC3)nc(N(C)CC(C)(C)C)n2)c1`
< 30000 nM

# return recorded IC50 for entry CC(CNc1nc(Nc2ccc3ncsc3c2)nc(N2CC3CC2CN3C(=O)C2CCOC2)n1)c1ccccc1 (centres undefined)
< 10000 nM
